Biological target: Bifunctional protein GlmU (Mycobacterium tuberculosis (strain ATCC 25618 / H37Rv)) (UniProt P9WMN3)
Sequence (P9WMN3 whole entry, looked up): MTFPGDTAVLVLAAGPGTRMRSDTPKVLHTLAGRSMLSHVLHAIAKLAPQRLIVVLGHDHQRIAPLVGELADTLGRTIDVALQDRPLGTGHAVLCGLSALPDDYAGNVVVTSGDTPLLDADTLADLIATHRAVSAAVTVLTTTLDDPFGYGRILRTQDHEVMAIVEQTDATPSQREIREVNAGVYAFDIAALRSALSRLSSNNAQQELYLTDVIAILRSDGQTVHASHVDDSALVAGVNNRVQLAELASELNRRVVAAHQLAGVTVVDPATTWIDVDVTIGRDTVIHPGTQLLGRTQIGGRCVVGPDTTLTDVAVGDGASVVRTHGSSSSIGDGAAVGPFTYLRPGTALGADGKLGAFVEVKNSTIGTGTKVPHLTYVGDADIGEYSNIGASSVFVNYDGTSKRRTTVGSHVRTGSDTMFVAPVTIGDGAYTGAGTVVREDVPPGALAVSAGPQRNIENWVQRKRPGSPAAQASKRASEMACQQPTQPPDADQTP
Experiment: inhibition of mycobacterial GlmU enzyme – biochemical, glucosamine-1-phosphate acetyltransferase (AID 1376);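 further: 0% = complete reaction with vehicle and 100% = reaction without substrate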
Conditions: M. tuberculosis GlmU acetyltransferase enzyme assay; stronger effect = higher value;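 tested at 30 µM in the primary screen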
Among all 220,000 compounds or so, about 530 (0.24%) were called active. The entries come from a sample that favours actives as a whole. Potency and affinity values are given separately.
Catalogue of inhibition values

molecule: Cc1cc(C)n(CCc2nc(-c3ccc(C(C)(C)C)cc3)cs2)n1
inhibition / %: -7.47

molecule: O=c1c2[nH]c3cccc(Cl)c3c2ncn1CCN1CCCCC1
inhibition / %: 0.41

molecule: Cc1c(C(=O)OCCOc2ccccc2)[nH]c2c1C(=O)CCC2
inhibition / %: 2.56

molecule: COc1ccc(-n2c(C)cc(/C=C/c3nc(O)c([N+](=O)[O-])c(=O)[nH]3)c2C)cc1
inhibition / %: 10

molecule: CC1(C)CC(=O)C2=C(C1)NC(=O)C21C(C(=O)OC(C)(C)C)=C(N)Oc2ccc(Br)cc21 (stereo not drawn)
inhibition / %: 4.2

molecule: Cn1cnnc1SCc1ccc(C(=O)N/N=C(\CCC(=O)O)c2ccc(C(C)(C)C)cc2)cc1
inhibition / %: -2.55

molecule: CN(C)S(=O)(=O)c1ccc(C(=O)N2CCOCC2)cc1
inhibition / %: 9.61

molecule: O=C(O)c1ccccc1Nc1ccccc1C(=O)O
inhibition / %: -0.95

====

Molecular target: Bifunctional protein GlmU (Mycobacterium tuberculosis (strain ATCC 25618 / H37Rv)) (UniProt P9WMN3)
Experiment: inhibition of mycobacterial GlmU enzyme – biochemical, glucosamine-1-phosphate acetyltransferase (AID 1376);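 further: 0% = complete reaction with vehicle and 100% = reaction without substrate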
Conditions: M. tuberculosis GlmU acetyltransferase enzyme assay;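 tested at 30 µM in the primary screen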
The whole screen tested about 220,000 compounds, of which about 530 (0.24%) were called active. Cut-off read from the data, not from the text of the source: active = inhibition above about 13%; inconclusive = no clear call, values can overlap the other calls; inactive = below that. Only a selection was taken, and actives are over-represented in it overall. Entries with a potency or affinity are not part of this list.
Outcomes: active, inactive

molecule: CC(=O)Nc1ccc(S(=O)(=O)N2CCN(c3ccccn3)CC2)cc1
class: active
--
molecule: CCOC(=O)C1=C(N)OC2=C(C(=O)CCC2)C12C(=O)N1c3c(ccc(C)c32)C(C)=CC1(C)C (stereo not given)
class: active
--
molecule: O=c1c2c([nH]c3ccccc13)CCCCC2
class: inactive
--
molecule: COc1cc(C(=O)Oc2ccc3c(c2)OCC3=O)cc(OC)c1OC
class: inactive
--
molecule: O=C(O)C(Cc1ccccc1)N1C(=O)/C(=C/c2cccs2)SC1=S (stereo not given)
class: active
--
molecule: Cc1cnc(C)c(N2CCC(C(=O)NC(C)c3cccs3)CC2)n1 (stereo not given)
class: active
--
molecule: O=C(O)C(Cc1ccccc1)N1C(=O)/C(=C/c2ccccc2)SC1=S (stereo not given)
class: inactive
--
molecule: O=C(O)Cn1cc(/C=c2/sc3nc4ccccc4n3c2=O)c2ccccc21
class: inactive
--
molecule: O=c1[nH]c(/C=C/c2cccnc2)c([N+](=O)[O-])c(=O)[nH]1
class: inactive
--
molecule: CCOc1ncccc1C(=O)N1CCN(C(c2ccccc2)c2ccccc2)CC1
class: inactive
--
molecule: Cc1ccc(-n2c(C)cc(/C=c3/sc4nc5ccccc5n4c3=O)c2C)cc1
class: inactive
--
molecule: N#Cc1c2c(c(NCCCN3CCOCC3)n3c1nc1ccccc13)CCC2
class: active
--
molecule: O=c1/c(=C/c2ccc(O)c([N+](=O)[O-])c2)sc2nc3ccccc3n12
class: inactive
--
molecule: O=C(O)CC(C(=O)O)N1C(=O)/C(=C/C=C/c2ccco2)SC1=S (stereo not given)
class: active
--
molecule: O=C1S/C(=C\C=C\c2ccco2)C(=O)N1c1ccc(O)cc1
class: inactive

====

Catalogue of inhibition values
Molecular target: Bifunctional protein GlmU (Mycobacterium tuberculosis (strain ATCC 25618 / H37Rv)) (UniProt P9WMN3)
Assay: inhibition of mycobacterial GlmU enzyme – biochemical, glucosamine-1-phosphate acetyltransferase (AID 1376);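 further: 0% = complete reaction with vehicle and 100% = reaction without substrate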
Conditions: M. tuberculosis GlmU acetyltransferase enzyme assay; stronger effect = higher value;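 tested at 30 µM in the primary screen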
Screen size: about 220,000 compounds; about 530 (0.24%) were called active. Many of the other results were omitted from the sample, so actives are more common in it than they were. Measured potencies and affinities stand elsewhere.
observable: inhibition

compound: Cc1ccnc(NC(=O)c2ccc3c(c2)S(=O)(=O)c2ccccc2C3=O)c1
observable: inhibition
recordedMeasurement: 1.48% (inactive)
--
compound: N=C1/C(=C\c2ccc(SCc3ccco3)o2)C(=O)N=C2SC=NN12
observable: inhibition
recordedMeasurement: 8.44% (inactive)
--
compound: Cc1nn(Cc2ccccc2)c(=O)n1N(C)c1ncc(C(F)(F)F)cc1Cl
observable: inhibition
recordedMeasurement: -3.42% (inactive)
--
compound: O=C(N/N=C/C=C/c1ccc(Br)cc1)C(O)c1ccccc1 (stereo unspecified)
observable: inhibition
recordedMeasurement: -4.11% (inactive)
--
compound: CCNc1oc(-c2ccc(OC)cc2)nc1S(=O)(=O)c1ccc(Br)cc1
observable: inhibition
recordedMeasurement: -0.98% (inactive)
--
compound: COc1ccccc1C(=O)NCc1n[nH]c(=S)n1Cc1ccccc1
observable: inhibition
recordedMeasurement: 0.36% (inactive)
--
compound: O=C(O)c1cc(O)c2c(c1)C(=O)c1cccc(O)c1C2=O
observable: inhibition
recordedMeasurement: 0.69% (inactive)
--
compound: Cn1c(SCC(N)=O)nnc1C1CCN(C(=O)NCc2ccccc2)CC1
observable: inhibition
recordedMeasurement: 2.81% (inactive)
--
compound: Cc1cccc(NC(=O)Cn2cnc3c(oc4ccccc43)c2=O)c1C
observable: inhibition
recordedMeasurement: 3.4% (inactive)
--
compound: O=c1/c(=C\c2ccc(O)cc2)sc2n1C(c1ccccc1)C(c1ccccc1)=NN=2 (stereo unspecified)
observable: inhibition
recordedMeasurement: 15.3% (active)
--
compound: CCOc1cc(/C=C2/SC(=S)NC2=O)ccc1OC(=O)c1ccco1
observable: inhibition
recordedMeasurement: 1.76% (inactive)

====

Biological target: Bifunctional protein GlmU (Mycobacterium tuberculosis (strain ATCC 25618 / H37Rv)) (UniProt P9WMN3)
Test: inhibition of mycobacterial GlmU enzyme – biochemical, glucosamine-1-phosphate acetyltransferase (AID 1376);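 further: 0% = complete reaction with vehicle and 100% = reaction without substrate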
Conditions: M. tuberculosis GlmU acetyltransferase enzyme assay;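 tested at 30 µM in the primary screen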
Hit rate of the full screen: of about 220,000 compounds, about 530 (0.24%) were called active. Rule as the data show it: active = inhibition above about 13%; inconclusive = no clear call, values can overlap the other calls; inactive = below that. For the sample, actives were picked, then their nearest neighbours and some compounds at random. Entries with a potency or affinity are not part of this list.
Outcomes: class 1 for active, class 0 for inactive

compound: NC(=O)c1ccccc1NC(=O)Nc1cccc2ccccc12
class: class 0
//
compound: COc1ccc(C2C=C(c3ccc(Br)s3)Nc3ncnn32)cc1OC (stereo not drawn)
class: class 1
//
compound: CC(=O)Nc1cccc(NC(=O)c2ccc([N+](=O)[O-])cc2Cl)c1
class: class 0

====

Molecular target: Bifunctional protein GlmU (Mycobacterium tuberculosis (strain ATCC 25618 / H37Rv))
Test: inhibition of mycobacterial GlmU enzyme – biochemical, glucosamine-1-phosphate acetyltransferase (AID 1376);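 further: 0% = complete reaction with vehicle and 100% = reaction without substrate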
Details: M. tuberculosis GlmU acetyltransferase enzyme assay; stronger effect = higher value;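 tested at 30 µM in the primary screen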
The whole screen tested about 220,000 compounds, of which about 530 (0.24%) were called active. This excerpt belongs to a sample that is enriched for actives. Potency and affinity values are given separately.
Catalogue of inhibition values
observable: inhibition (%)

compound: COc1ccc(NC(=O)CCS(=O)(=O)c2ccc3c(c2)CCCN3C(C)=O)cc1
unitOfMeasure: %
recordedMeasurement: 0.16
//
compound: COC(=O)CN(c1nc(C)c(Br)c(OC)n1)S(=O)(=O)c1ccc(C)cc1
unitOfMeasure: %
recordedMeasurement: 1.24
//
compound: O=C(Nc1cccc(Cl)c1)Nc1nnc(CSCCOc2ccc(Cl)cc2)s1
unitOfMeasure: %
recordedMeasurement: -7.81
//
compound: COc1ccc(/C=C2\CCc3c2nc2ccccc2c3C(=O)O)cc1OC
unitOfMeasure: %
recordedMeasurement: -1.01
//
compound: COc1ccc(C(=O)N/N=C(\C)c2ccc3c(c2)C2C=CCC2C(c2ccccc2)N3)cc1 (stereo unspecified)
unitOfMeasure: %
recordedMeasurement: 7.99
//
compound: O=C(COC(=O)C12CC3CC(CC(C3)C1)C2)NCCc1ccccc1
unitOfMeasure: %
recordedMeasurement: 5.26
//
compound: O=C(Nc1ccccc1)c1ccc2snnc2c1
unitOfMeasure: %
recordedMeasurement: -0.53
//
compound: O=C(NCCc1c[nH]c2ccccc12)C(F)(F)F
unitOfMeasure: %
recordedMeasurement: -4.42
//
compound: O=C(O)c1ccc(NS(=O)(=O)c2ccc3c(c2)C2C=CCC2C(c2ccccc2F)N3)cc1 (stereo unspecified)
unitOfMeasure: %
recordedMeasurement: 25.9
//
compound: COc1ccc(/C=C2\SC(=O)N(CC(=O)NNC(=O)c3ccccc3O)C2=O)cc1OC
unitOfMeasure: %
recordedMeasurement: 13.8
//
compound: Cc1ccc(NC(=O)CN2C(=O)S/C(=C\c3ccc(-c4cccc(C(=O)O)c4C)o3)C2=O)cc1C
unitOfMeasure: %
recordedMeasurement: 15.4
